- System: LC4-1 (B-Lymphoblastic Leukemia)
- test.name: Bliss excess, mean over the matrix (fraction); higher = more synergy

compound	Bliss excess
COc1nnc2ccc(N3CCC(c4ccc(OCCN5CCN(C)C(=O)[C@H]5C)cc4)CC3)nn12 [AZD5153] + Cn1cnc2c(F)c(Nc3ccc(Br)cc3Cl)c(C(=O)NOCCO)cc21 [Selumetinib] (first compound max 1 µM, 7x7, partner max 10 µM)	0.012
CC1(C)CCC(CN2CCN(c3ccc(C(=O)NS(=O)(=O)c4ccc(NCC5CCOCC5)c([N+](=O)[O-])c4)c(Oc4cnc5[nH]ccc5c4)c3)CC2)=C(c2ccc(Cl)cc2)C1 [Venetoclax] + CS(=O)(=O)CCNCc1ccc(-c2ccc3ncnc(Nc4ccc(OCc5cccc(F)c5)c(Cl)c4)c3c2)o1 [Lapatinib] (first compound max 1 µM, 7x7, partner max 10 µM)	0.0233
C=CCn1c(=O)c2cnc(Nc3ccc(N4CCN(C)CC4)cc3)nc2n1-c1cccc(C(C)(C)O)n1 [AZD1775] + CCc1c2c(nc3ccc(O)cc13)-c1cc3c(c(=O)n1C2)COC(=O)[C@]3(O)CC [SN-38] (first compound max 1 µM, partner max 0.3 µM)	-0.0519
N#Cc1cnc(Nc2cc(NC[C@H]3CNCCO3)c(C(F)(F)F)cn2)cn1 [SRA737] + O=c1[nH]cc(F)c(=O)[nH]1 [5-Fluorouracil] (first compound max 10 µM, 7x7, partner max 20 µM)	-0.0214

* * *

Parameter Bliss excess: see the listing below.
- Test system: GOTO (Neuroblastoma)
- test.name: Bliss excess, mean over the matrix (fraction); higher = more synergy
readout.label: Bliss excess

compound	observed.value
COc1nnc2ccc(N3CCC(c4ccc(OCCN5CCN(C)C(=O)[C@H]5C)cc4)CC3)nn12 [AZD5153] + Cn1cnc2c(F)c(Nc3ccc(Br)cc3Cl)c(C(=O)NOCCO)cc21 [Selumetinib] (first compound max 1 µM, 7x7, partner max 10 µM)	-0.0522
Cc1c2c(nn1C)CSCc1cc(n(C)n1)CSc1cc(c3ccccc3c1)OCCCc1c(C(=O)O)n(C)c3c-2c(Cl)ccc13 [AZD5991] + C[C@@H](Nc1cc(F)cc(F)c1)c1cc(C(=O)N(C)C)cc2c(=O)cc(N3CCOCC3)oc12 [AZD8186] (first compound max 1 µM, 7x7, partner max 3 µM)	-0.0589

* * *

- System: KU-19-19 (Bladder Carcinoma)
- test.name: combination Emax (second highest fraction inhibited in the dose matrix, 72 h); higher = more inhibition; extreme values may be limits of the assay
combination Emax vs 0.9: at or above is true (1), below is false (0).

molecule	qualitative.label
Cc1cc2ncnn2cc1Nc1ncc2c(n1)n(C1CCOCC1)c(=O)n2C [AZD7648] + O=C(c1cc(Cc2n[nH]c(=O)c3ccccc23)ccc1F)N1CCN(C(=O)C2CC2)CC1 [Olaparib] (first compound max 10 µM, 7x7, partner max 10 µM)	false (0)
COc1nnc2ccc(N3CCC(c4ccc(OCCN5CCN(C)C(=O)[C@H]5C)cc4)CC3)nn12 [AZD5153] + Cc1c2c(nn1C)CSCc1cc(n(C)n1)CSc1cc(c3ccccc3c1)OCCCc1c(C(=O)O)n(C)c3c-2c(Cl)ccc13 [AZD5991] (first compound max 1 µM, 7x7, partner max 1 µM)	false (0)
CC1(C)CCC(CN2CCN(c3ccc(C(=O)NS(=O)(=O)c4ccc(NCC5CCOCC5)c([N+](=O)[O-])c4)c(Oc4cnc5[nH]ccc5c4)c3)CC2)=C(c2ccc(Cl)cc2)C1 [Venetoclax] + C=CCn1c(=O)c2cnc(Nc3ccc(N4CCN(C)CC4)cc3)nc2n1-c1cccc(C(C)(C)O)n1 [AZD1775] (first compound max 1 µM, partner max 1 µM)	false (0)
CN(CCO)CC[C@H](CSc1ccccc1)Nc1ccc(S(=O)(=O)NC(=O)c2ccc(N3CCC([C@@H](O)c4ccccc4-c4ccc(Cl)cc4)CC3)cc2)cc1S(=O)(=O)C(F)(F)F [AZD4320] + Cn1cnc2c(F)c(Nc3ccc(Br)cc3Cl)c(C(=O)NOCCO)cc21 [Selumetinib] (first compound max 1 µM, 7x7, partner max 3 µM)	true (1)
CC1(C)CCC(CN2CCN(c3ccc(C(=O)NS(=O)(=O)c4ccc(NCC5CCOCC5)c([N+](=O)[O-])c4)c(Oc4cnc5[nH]ccc5c4)c3)CC2)=C(c2ccc(Cl)cc2)C1 [Venetoclax] + Cc1cc2ncnn2cc1Nc1ncc2c(n1)n(C1CCOCC1)c(=O)n2C [AZD7648] (first compound max 1 µM, 7x7, partner max 10 µM)	false (0)
CC(=O)Nc1cccc(-n2c(=O)n(C3CC3)c(=O)c3c(Nc4ccc(I)cc4F)n(C)c(=O)c(C)c32)c1 [Trametinib] + Cc1nc(-c2cn3c(n2)-c2ccc(-c4cnn(C(C)(C)C(N)=O)c4)cc2OCC3)n(C(C)C)n1 [Taselisib] (first compound max 1 µM, 7x7, partner max 10 µM)	true (1)

The reported numbers originate from the supplement of paper PMC11061612.
